target: BRD4-BD1 (Homo sapiens (Human), UniProt O60885); experiment: BRD4-H4 tetraacetylated peptide inhibition AlphaScreen; settings: 15 nM GST-BRD4-BD1 (aa 44-168), 15 nM biotinylated Acetyl-Histone H4 (Lys5, 8, 12, 16) peptide
Criterion: IC50 strictly less than 60 nM. Met: TRUE. Not met: FALSE.

INSERT INTO assay_data (compound, label) VALUES
  ('Cc1nnc2c(NC3CCN(S(=O)(=O)C4CCNC4)CC3)cc(N(C)Cc3ccccc3)nn12 (stereo not shown)', 'TRUE'),
  ('Cc1nnc2c(NC3CCN(S(=O)(=O)CCCN(C)C)CC3)cc(N(C)Cc3ccccc3)nn12', 'TRUE'),
  ('Cc1nnc2c(NC(C)C)cc(-c3cn(C(C)C)nc3Cc3ccccc3)nn12', 'FALSE');

Q: Does this compound meet the criterion IC50 < 60 nM? Cc1nnc2c(NC3CCOCC3)cc(N(C)Cc3ccccc3)nn12
Result: FALSE

Q: Does this compound meet the criterion IC50 < 60 nM? Cc1nnc2c(NC3CCN(C)CC3)cc(-c3cnn(C)c3Oc3ccccc3)nn12
Result: TRUE

====

molecular target: BRD4-BD1 (Homo sapiens (Human), UniProt O60885); assay: BRD4-H4 tetraacetylated peptide inhibition AlphaScreen; settings: 15 nM GST-BRD4-BD1 (aa 44-168), 15 nM biotinylated Acetyl-Histone H4 (Lys5, 8, 12, 16) peptide
Each item that follows carries a reported IC50.
Give just the numeric value; µM need not be written.

INSERT INTO assay_data (compound, measured_attribute, units_text, measured_number) VALUES
  ('CNc1cc(-c2cn(C)nc2Oc2ccccn2)nn2c(C)nnc12 [II-21]', 'IC50', 'µM', 0.072),
  ('Cc1nnc2c(NC(C)C)cc(-c3cnn(C)c3Oc3ccccc3)nn12 [II-17]', 'IC50', 'µM', 0.14),
  ('CCN1CCC(Nc2cc(N(C)Cc3ccccc3)nn3c(C)nnc23)CC1 [III-2]', 'IC50', 'µM', 0.003),
  ('Cc1nnc2c(NC3CCN(C)CC3)cc(N(C)Cc3ccccc3)nn12 [Example I-1]', 'IC50', 'µM', 0.003);

Q: Given the entry Cc1nnc2c(N[C@@H]3CCOC3)cc(N(C)Cc3ccccc3)nn12 [Example I-4] , what IC50 was observed with BRD4-BD1 (Homo sapiens (Human), UniProt O60885)?
Result: 0.025

Q: Given the entry Cc1nnc2c(NC3CCN(S(=O)(=O)CCN)CC3)cc(N(C)Cc3ccccc3)nn12 [III-8] , what IC50 was observed with BRD4-BD1 (Homo sapiens (Human), UniProt O60885)?
Result: 0.032

Q: Given the entry COCCN1CCC(Nc2cc(-c3cn(C)nc3Cc3ccccc3)nn3c(C)nnc23)CC1 [II-8] , what IC50 was observed with BRD4-BD1 (Homo sapiens (Human), UniProt O60885)?
Result: 0.004

Q: Given the entry Cc1nnc2c(NC(C)C)cc(-c3cn(C)nc3Oc3ccccc3)nn12 [II-18] , what IC50 was observed with BRD4-BD1 (Homo sapiens (Human), UniProt O60885)?
Result: 0.031

Q: Given the entry CNc1cc(-c2cn(C)nc2Oc2ccccc2)nn2c(C)nnc12 [II-15] , what IC50 was observed with BRD4-BD1 (Homo sapiens (Human), UniProt O60885)?
Result: 0.029
